These entries and their values trace back to ChEMBL document CHEMBL1201862.

Test system: M14
assay procedure: NCI tumour cell line growth inhibition, 48 h
The source made the active and inactive calls. Rule as the data show it: active = GI50 up to about 1.1 µM and inactive = higher. Where a SMILES comes first, the peptide text is derived from it. [ ]: non-standard residue; d: D form. The star is where a group is joined. Bn2Val = CC(C)[C@@H](C(=O)*)N(Cc1ccccc1)Cc1ccccc1; NHPiperonyl = c1cc2c(cc1CN*)OCO2; NMeV = CN[C@H](C(=O)O)C(C)C; dNMeA = CN[C@H](C)C(=O)O
Pick from 1 = active, -1 = inactive when you respond.

[[record]]
molecule = "CCCc1nc2c(n1CC)C(=O)c1ccccc1C2=O"
system_tested = "M14"
assigned_class = -1

[[record]]
molecule = "COc1cc(C2SCC(=O)N2Cc2ccccc2)cc(OC)c1OC (centres undefined)"
system_tested = "M14"
assigned_class = -1


Outcome logged for CC(C)[C@H](NC(=O)[C@H](C(C)C)N(Cc1ccccc1)Cc1ccccc1)C(=O)N(C)[C@H](C(=O)N1CCC[C@H]1C(=O)N(C)[C@H](C)C(=O)NCc1ccc2c(c1)OCO2)C(C)C (Bn2Val-V[NMeV]P[dNMeA]-NHPiperonyl) in this assay:
-1

Outcome logged for "Cc1ccc(NCC(=O)N2CC(=O)Nc3ccccc32)cc1" in this assay:
-1

Outcome logged for O=C1C2c3[nH]c4ccccc4c3C3CCCCCC3C2C(=O)N1c1ccccc1 (centres undefined) in this assay:
-1

Outcome logged for CC(C)[C@](O)(C(=O)OCC1=CC[N+]2([O-])CC[C@@H](O)[C@@H]12)[C@H](C)O (some centres undefined) [INDICINE N-OXIDE] in this assay:
-1

Outcome logged for "NC1(P(=O)(O)O)CCCCC1" in this assay:
-1

Outcome logged for CN1CCC(c2c(O)cc(O)c3c(=O)cc(-c4ccccc4Cl)oc23)C(O)C1 (centres undefined) in this assay:
1

Outcome logged for "Cc1c(C#N)c(=O)[nH]c(=O)n1CCN1CCN(C(=O)NCCCCCCNC(=O)N2CCN(CCn3c(C)c(C#N)c(=O)[nH]c3=O)CC2)CC1" in this assay:
-1

Outcome logged for "COc1cccc(/C=C\c2ccc(O)cc2)c1" in this assay:
-1

---

Measured GI50, listed per entry.
System: M19-MEL
assay procedure: NCI tumour cell line growth inhibition, 48 h
Active and inactive are the calls of the source. Cut-off read from the data, not from the text of the source: active = GI50 up to about 1.1 µM and inactive = higher.

[[record]]
compound = "CCCCN(CCCC)CCCCNc1c(C)cnc2cc(Cl)ccc12"
system_tested = "M19-MEL"
property = "GI50"
experimental_value = "32.5 µM (inactive)"


Note down GI50 recorded for O=C(Nc1ccc(F)cc1)C(=O)C(C1OC(=O)c2ccccc21)[N+](=O)[O-] (stereo not drawn)
> 100 µM (inactive)

---

Measured GI50, listed per entry.
Test system: SF-539
assay procedure: NCI tumour cell line growth inhibition, 48 h
Activity calls are given as the source filed them. Rule as the data show it: active = GI50 up to about 1.1 µM and inactive = higher.

Examples with their reported GI50 follow.
[[record]]
compound = "COC(=O)c1oc([N+](=O)[O-])c(Cl)c1Cl"
property = "GI50"
experimental_value = "6.01 µM (inactive)"

[[record]]
compound = "O=C(Nc1ccc2nc(O)n[n+]([O-])c2c1)C(F)(F)F"
property = "GI50"
experimental_value = "> 100 µM (inactive)"

[[record]]
compound = "CC(C)(CO)NC(=O)c1cccc(C(=O)NC(C)(C)CO)c1Br"
property = "GI50"
experimental_value = "> 100 µM (inactive)"

[[record]]
compound = "Cc1nc(-n2nc(-c3ccccc3)cc2-c2ccccc2)sc1C(=O)CC(=O)C(=O)Nc1ccc(O)cc1"
property = "GI50"
experimental_value = "> 100 µM (inactive)"


Note down GI50 recorded for C=CCOC(C)(C)C1=CCC(C)CC1 (stereo unspecified)
> 100 µM (inactive)

Note down GI50 recorded for "COc1cc(O)c(Cc2ccccc2O)c(O)c1C(=O)CCc1ccccc1"
5.41 µM (inactive)
